- TGT: T1, P14f
- T1 chain: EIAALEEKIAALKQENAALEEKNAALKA
- EXPERIMENTAL PROTOCOL: ITC; MicroCal PEAQ-ITC; syringe peptide (1 mM P5f, P13f; 5.6 mM S1h or 5.4 mM S3h) injected into the cell with the complementary peptide (100 µM P6f or P14f; 560 µM S2h or 540 µM S4h); 50 mM Tris pH 7.5, 150 mM NaCl, 1 mM TCEP; concentrations of the S peptides not stated
- TEST CONTEXT: both partners purified
METRIC NAME: pKd
Formally, pKd is defined as -log10 of the concentration c, with c in mol/L.

Exam item: Returns the measured pKd for the input binder. Input: KIAALKEEIAALEQKNAALKEENAALEA [P13f]
Marked response: 5.64
